Please provide measured combination Emax for the entries that follow.
System: NCI-H2228 (Lung Adenocarcinoma)
Assay: combination Emax (second highest fraction inhibited in the dose matrix, 72 h); higher = more inhibition; extreme values may be limits of the assay
Answers are plain numbers.

Some solved cases for reference:
[[record]]
compound = "Cc1cc2ncnn2cc1Nc1ncc2c(n1)n(C1CCOCC1)c(=O)n2C [AZD7648] + CCN(CCO)CCCOc1ccc2c(Nc3cc(CC(=O)Nc4cccc(F)c4)[nH]n3)ncnc2c1 [AZD2811] (first compound max 10 µM, 7x7, partner max 1 µM)"
target_desc = "NCI-H2228 (Lung Adenocarcinoma)"
measured_number = 0.434

[[record]]
compound = "CC1(C)CCC(CN2CCN(c3ccc(C(=O)NS(=O)(=O)c4ccc(NCC5CCOCC5)c([N+](=O)[O-])c4)c(Oc4cnc5[nH]ccc5c4)c3)CC2)=C(c2ccc(Cl)cc2)C1 [Venetoclax] + Cn1cnc2c(F)c(Nc3ccc(Br)cc3Cl)c(C(=O)NOCCO)cc21 [Selumetinib] (first compound max 1 µM, 7x7, partner max 3 µM)"
target_desc = "NCI-H2228 (Lung Adenocarcinoma)"
measured_number = 0.185

[[record]]
compound = "CN(CCO)CC[C@H](CSc1ccccc1)Nc1ccc(S(=O)(=O)NC(=O)c2ccc(N3CCC([C@@H](O)c4ccccc4-c4ccc(Cl)cc4)CC3)cc2)cc1S(=O)(=O)C(F)(F)F [AZD4320] + C[C@@H]1COCCN1C2=NC(=NC(=C2)C3(CC3)[S@](=N)(=O)C)C4=C5C=CNC5=NC=C4 [AZD6738] (first compound max 1 µM, 7x7, partner max 10 µM)"
target_desc = "NCI-H2228 (Lung Adenocarcinoma)"
measured_number = 0.466


Here is another compound to look at.
Incoming: Please report the recorded combination Emax for NC1(C(=O)N[C@@H](CCO)c2ccc(Cl)cc2)CCN(c2ncnc3[nH]ccc23)CC1 [Capivasertib] + CCN(CCO)CCCOc1ccc2c(Nc3cc(CC(=O)Nc4cccc(F)c4)[nH]n3)ncnc2c1 [AZD2811] (first compound max 10 µM, 7x7, partner max 1 µM) .
Outgoing: 0.533

====

Test system: JIMT-1 (Breast Carcinoma);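 also: after 72 h of two-drug dosing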
Test: Bliss excess, mean over the matrix (fraction); higher = more synergy
assay readout: Bliss excess
Give bare numbers.

Some solved cases for reference:
[[record]]
compound = "CN(CCO)CC[C@H](CSc1ccccc1)Nc1ccc(S(=O)(=O)NC(=O)c2ccc(N3CCC([C@@H](O)c4ccccc4-c4ccc(Cl)cc4)CC3)cc2)cc1S(=O)(=O)C(F)(F)F [AZD4320] + C[C@@H](Nc1cc(F)cc(F)c1)c1cc(C(=O)N(C)C)cc2c(=O)cc(N3CCOCC3)oc12 [AZD8186] (first compound max 1 µM, 7x7, partner max 3 µM)"
measured_number = 0.0064

[[record]]
compound = "CC1(C)CCC(CN2CCN(c3ccc(C(=O)NS(=O)(=O)c4ccc(NCC5CCOCC5)c([N+](=O)[O-])c4)c(Oc4cnc5[nH]ccc5c4)c3)CC2)=C(c2ccc(Cl)cc2)C1 [Venetoclax] + C=CCn1c(=O)c2cnc(Nc3ccc(N4CCN(C)CC4)cc3)nc2n1-c1cccc(C(C)(C)O)n1 [AZD1775] (first compound max 1 µM, partner max 1 µM)"
measured_number = -0.0568


Here is another compound to look at.
Incoming: Please report the recorded Bliss excess for CCN(CCO)CCCOc1ccc2c(Nc3cc(CC(=O)Nc4cccc(F)c4)[nH]n3)ncnc2c1 [AZD2811] + C=CCn1c(=O)c2cnc(Nc3ccc(N4CCN(C)CC4)cc3)nc2n1-c1cccc(C(C)(C)O)n1 [AZD1775] (first compound max 1 µM, partner max 1 µM) .
Outgoing: -0.0159
